All figures here come from patent US20250332173A1.

Tested on: HTT mRNA
Assay: RT-qPCR splicing assay, HTT canonical junction (CJ) and alternative junction (AJ) mRNA
Format: cell-based, human
Conditions: Homo sapiens, decrease in HTT canonical junction (CJ) mRNA, RT-qPCR; read-out: HTT CJ IC50
pIC50: −log10 of the molar value.
Reported pIC50 values for the following compounds.

Field: example entries. Status: answers known.
[
  {
    "compound": "Cc1cn2cc(-c3cc4ncn(C5CCNCC5)c(=O)c4cc3F)cc(F)c2n1 [Compound 586]",
    "pIC50": "5.00 to 6.00"
  },
  {
    "compound": "Cc1cn2nc(-c3cc(C)c4c(=O)n(C5CCNC6(CC6)C5)ncc4c3)cc(C)c2n1 (stereo not shown) [Compound 423]",
    "pIC50": "> 7.00"
  },
  {
    "compound": "Cn1cc2cc(-c3ccc4c(=O)n(C5CCNCC5)ccc4n3)c(O)c(C#N)c2n1 [Compound 1283]",
    "pIC50": "6.00 to 7.00"
  },
  {
    "compound": "Cc1cn2cc(-c3ccc4c(=O)n(C5CCNC6(CC6)C5)cnc4c3)cc(F)c2n1 (stereo not shown) [Compound 236]",
    "pIC50": "6.00 to 7.00"
  },
  {
    "compound": "Cc1cn2cc(-c3ncc4c(=O)n(C5C[C@H](C)N[C@@H](C)C5)ccc4n3)cc(F)c2n1 (stereo partly shown) [Compound 1482]",
    "pIC50": "5.00 to 6.00"
  },
  {
    "compound": "Cc1cn2nc(-c3ccc4c(=O)n(C5CCNC(C)(C)C5)ncc4c3)cc(C)c2n1 (stereo not shown) [Compound 279]",
    "pIC50": "6.00 to 7.00"
  },
  {
    "compound": "Cc1cn2cc(-c3ccc4c(=O)n(C5C[C@H](C)N[C@@H](C)C5)ccc4n3)cc(F)c2n1 (stereo partly shown) [Compound 1502]",
    "pIC50": "5.00 to 6.00"
  },
  {
    "compound": "Cc1cn2nc(-c3ccc4c(=O)n(C5CCN(C)CC5)cnc4c3)nc2c(C)n1 [Compound 288]",
    "pIC50": "5.00 to 6.00"
  }
]

Q) Reported pIC50 for HTT mRNA, given Cc1cn2nc(-c3ccc4c(=O)n(C5CCCNCC5)ncc4c3)cc(C)c2n1 (stereo not shown) [Compound 283] ?
A) 6.00 to 7.00

###

Reported AC50 values for the following compounds.
System: MYB mRNA
Assay: RT-qPCR splicing assay, MYB canonical junction (CJ) and alternative junction (AJ) mRNA
Assay type: cell-based, human
Conditions: Homo sapiens; increase in MYB alternative junction (AJ) mRNA, RT-qPCR; read-out: MYB AJ AC50

[
  {
    "compound": "Cc1cn2nc(-c3ccc4c(=O)n(C5CCNC(C)(C)C5)ncc4c3)cc(C)c2n1 (centres unmarked)",
    "val": "< 100 nM"
  },
  {
    "compound": "Cc1cn2nc(-c3ccn4c(=O)c(C5CCNCC5)ccc4c3)cc(C)c2n1",
    "val": "< 100 nM"
  },
  {
    "compound": "Cc1cc(-c2ccc3c(=O)n(C4CC(C)(C)NC(C)(C)C4)cnc3c2)cc2cn(C)nc12",
    "val": "1000 to 10000 nM"
  },
  {
    "compound": "CN1CCC(c2ccc3c(=O)n(-c4ccc5nn(C)cc5c4)cnc3c2)CC1",
    "val": "> 10000 nM"
  },
  {
    "compound": "Cc1cn2cc(-c3nc4ccc(N5CCN(C)CC5)cc4c(=O)[nH]3)cc(F)c2n1",
    "val": "1000 to 10000 nM"
  }
]

Q) May I ask what AC50 has been recorded for Cc1cn2nc(-c3ccc4c(=O)n(C5CCN(CCF)CC5)ncc4c3)cc(C)c2n1 ?
A) 1000 to 10000 nM

Q) Next compound: Cc1cn2nc(-c3ccc4c(=O)n(C5CCNCC5)ccc4c3)cc(Cc3nnn[nH]3)c2n1
A) > 10000 nM

Q) Next compound: Cc1cn2nc(-c3ccc4c(=O)n(C5CCNCC5)ncc4c3)cc(Oc3ccccc3)c2n1
A) < 100 nM

###

Reported AC50 values for the following molecules.
Tested on: HTT mRNA
Assay: RT-qPCR splicing assay, HTT canonical junction (CJ) and alternative junction (AJ) mRNA
Assay type: cell-based, human
Conditions: Homo sapiens, increase in HTT alternative junction (AJ) mRNA, RT-qPCR; read-out: HTT AJ AC50

Field: example entries. Status: answers known.
[
  {
    "molecule": "Cc1cn2cc(-c3ccc4c(=O)n(C5CCN(C)CC5)cnc4c3)cc(F)c2n1",
    "target.under.test": "HTT mRNA",
    "AC50": "1000 to 10000 nM"
  },
  {
    "molecule": "Cc1cn2nc(-c3ccc4c(=O)n([C@@H]5CCN(C)[C@H](C)C5)ncc4c3)cc(C)c2n1",
    "target.under.test": "HTT mRNA",
    "AC50": "100 to 1000 nM"
  },
  {
    "molecule": "Cc1cn2cc(-c3nc(C)c4c(=O)n([C@H]5CCN[C@@H](C)C5)ccc4n3)cc(F)c2n1",
    "target.under.test": "HTT mRNA",
    "AC50": "100 to 1000 nM"
  },
  {
    "molecule": "Cc1cc(-c2cc3ccn(C4CCN(C5COC5)CC4)c(=O)c3cn2)cc2cn(C)nc12",
    "target.under.test": "HTT mRNA",
    "AC50": "100 to 1000 nM"
  },
  {
    "molecule": "Cc1cn2cc(-c3cc(F)c4c(=O)n(C5CNCCC5=O)cnc4c3)cc(F)c2n1 (stereo not shown)",
    "target.under.test": "HTT mRNA",
    "AC50": "> 10000 nM"
  }
]

Q) May I ask what AC50 has been recorded for Cc1c(O)c(-c2ncc3c(=O)n([C@@H]4CC5CC4CN5)ccc3n2)cc2cn(C)nc12 (stereo in doubt) ?
A) 1000 to 10000 nM

Q) Next molecule: Cc1cn2cc(-c3cc(F)c4c(=O)n([C@H]5CNCC[C@@H]5O)cnc4c3)cc(F)c2n1
A) > 10000 nM

###

Test system: MYB mRNA
Test: RT-qPCR splicing assay, MYB canonical junction (CJ) and alternative junction (AJ) mRNA
Assay type: cell-based, human
Conditions: Homo sapiens; decrease in MYB canonical junction (CJ) mRNA, RT-qPCR; read-out: MYB CJ IC50
pIC50: −log10 of the molar value. Structures can show the parent of a compound that is named as a salt.
quantity.name: pIC50

[
  {
    "compound": "CN1CCC(Nc2ccc3c(=O)n(-c4ccc5nn(C)cc5c4)cnc3c2)CC1 [Compound 163]",
    "target.under.test": "MYB mRNA",
    "val": "< 5.00"
  },
  {
    "compound": "Cc1cn2nc(-c3ccc4c(=O)n([C@H]5CCNC6(CCC6)C5)ncc4n3)cc(C)c2n1 [Compound 1544]",
    "target.under.test": "MYB mRNA",
    "val": "6.00 to 7.00"
  },
  {
    "compound": "Cc1cn2nc(-c3ccc4c(=O)n(C5CCNCC5)ccc4c3)cc(OCc3ccccc3)c2n1 [Compound 526]",
    "target.under.test": "MYB mRNA",
    "val": "6.00 to 7.00"
  },
  {
    "compound": "Cc1c(O)c(-c2ncc3c(=O)n([C@H]4C[C@H]5COC[C@@H](C4)N5)ccc3n2)cc2cn(C)nc12 [Compound 1472]",
    "target.under.test": "MYB mRNA",
    "val": "6.00 to 7.00"
  },
  {
    "compound": "Cn1cc2cc(-n3cnc4cc(NC5CCNCC5)ccc4c3=O)ccc2n1 [Compound 162]",
    "target.under.test": "MYB mRNA",
    "val": "< 5.00"
  },
  {
    "compound": "Cn1cc2cc(-c3cc(F)c4c(=O)n(C5CCNC6(CC6)C5)ccc4c3)cc(F)c2n1 (stereo not shown) [Compound 412]",
    "target.under.test": "MYB mRNA",
    "val": "> 7.00"
  },
  {
    "compound": "Cc1cn2nc(-c3ccc4c(=O)n(C5CCCNCC5)ncc4c3)cc(C)c2n1 (stereo not shown) [Compound 283]",
    "target.under.test": "MYB mRNA",
    "val": "6.00 to 7.00"
  },
  {
    "compound": "CNc1cc(-c2cc(C#N)c3nc(C)cn3c2)cc2ncn(C3CCNCC3)c(=O)c12 [Compound 363]",
    "target.under.test": "MYB mRNA",
    "val": "< 5.00"
  },
  {
    "compound": "Cc1cn2nc(-c3ccc4c(=O)n(C5CCNCC5)ccc4c3)cc(Oc3ccc(F)cc3)c2n1 [Compound 546, hydrochloride]",
    "target.under.test": "MYB mRNA",
    "val": "> 7.00"
  },
  {
    "compound": "Cc1cn2nc(-c3ccc4c(=O)n([C@@H]5CCN(C)C6(CC6)C5)ncc4n3)cc(C)c2n1 [Compound 1534]",
    "target.under.test": "MYB mRNA",
    "val": "> 7.00"
  }
]

Q) May I ask what pIC50 has been recorded for Cc1cn2cc(-c3ccc4c(=O)n(C5CCNC6(CC6)C5)cnc4c3)cc(F)c2n1 (stereo not shown) [Compound 236] ?
A) > 7.00

Q) Next compound: Cn1cc2cc(-c3cc(F)c4c(=O)n(C5CCNCC5)cnc4c3)c(F)cc2n1 [Compound 315]
A) 6.00 to 7.00
